Where do these numbers come from? They come from patent US8129371B2.

Target: PI3K (Homo sapiens)
Construct: PI3 Kinase γ IC50; other: PI3 Kinase γ; other: PI3 Kinase γ isoform, fluorescence polarization
Sequence (P48736 whole entry, canonical isoform): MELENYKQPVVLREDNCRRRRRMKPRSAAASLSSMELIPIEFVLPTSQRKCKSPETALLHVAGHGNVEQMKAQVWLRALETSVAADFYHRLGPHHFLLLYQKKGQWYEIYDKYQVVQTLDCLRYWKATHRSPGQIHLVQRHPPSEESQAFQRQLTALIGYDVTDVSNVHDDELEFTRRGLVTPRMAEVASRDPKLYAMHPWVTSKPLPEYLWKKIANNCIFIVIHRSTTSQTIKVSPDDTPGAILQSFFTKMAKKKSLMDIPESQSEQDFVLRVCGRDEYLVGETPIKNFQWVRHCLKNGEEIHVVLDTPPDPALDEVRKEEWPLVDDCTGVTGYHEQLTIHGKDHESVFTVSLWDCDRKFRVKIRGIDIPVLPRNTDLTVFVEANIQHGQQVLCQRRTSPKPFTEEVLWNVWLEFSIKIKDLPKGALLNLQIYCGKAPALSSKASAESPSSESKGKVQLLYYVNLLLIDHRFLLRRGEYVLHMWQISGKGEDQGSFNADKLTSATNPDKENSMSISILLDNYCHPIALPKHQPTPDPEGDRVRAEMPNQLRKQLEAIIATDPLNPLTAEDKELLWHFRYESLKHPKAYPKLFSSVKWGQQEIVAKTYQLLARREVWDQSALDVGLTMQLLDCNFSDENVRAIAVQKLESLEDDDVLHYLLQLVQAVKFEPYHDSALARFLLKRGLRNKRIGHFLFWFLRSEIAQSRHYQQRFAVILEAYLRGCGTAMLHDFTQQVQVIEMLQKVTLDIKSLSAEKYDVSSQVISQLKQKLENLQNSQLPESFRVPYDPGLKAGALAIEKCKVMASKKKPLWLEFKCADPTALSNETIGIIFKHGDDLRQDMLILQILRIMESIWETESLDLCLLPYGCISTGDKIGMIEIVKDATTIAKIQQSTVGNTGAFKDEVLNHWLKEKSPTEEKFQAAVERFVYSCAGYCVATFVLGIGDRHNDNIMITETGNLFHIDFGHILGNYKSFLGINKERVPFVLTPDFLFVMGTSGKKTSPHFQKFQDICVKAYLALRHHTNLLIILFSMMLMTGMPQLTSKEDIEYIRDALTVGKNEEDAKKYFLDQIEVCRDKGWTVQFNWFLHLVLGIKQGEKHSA
Test: Fluorescence polarization assay for PI3K
Format: biochemical
Details: PI3 Kinase γ; read-out: PI3 Kinase γ IC50
pIC50: −log10 of the molar value.
TEST READOUT: pIC50

Worked cases, answers included:
COMPOUND | pIC50
Cn1ncc2c(N3CC4CCC(C3)O4)nc(-c3ccc(NC(=O)Nc4ccc(S(=O)(=O)CCN5CCCCC5)cc4)cc3)nc21 [Example 240] | 6.04
CCn1ncc2c(N3CC4CCC(C3)O4)nc(-c3ccc(NC(=O)Nc4ccc(OC)cc4)cc3)nc21 [Example 187] | 5.42

A. COC(=O)N1CCC(n2ncc3c(N4CC5CCC(C4)O5)nc(-c4ccc(NC(=O)OCCN5CCCC5)cc4)nc32)CC1 [Example 116]
B. CC(C)OC(=O)N1CCC(n2ncc3c(N4CC5CCC(C4)O5)nc(-c4ccc(NC(=O)Nc5cccnc5)cc4)nc32)CC1 [Example 72]
Asked: Which shows the larger pIC50 value: A or B ? Mark your answer with the label of the selected entry.
Given back: B
(B: 5.57, A: 5.17)
